Experimental System: SMYD3 (Homo sapiens)
Construct: The SMYD3 full length enzyme was produced in-house by expression (with an N-terminal 6×His tag) in E. coli; 6xHis (N); made in house; host or cells: E. coli
Assay Details: SMYD3 Scintillation Proximity Assay (SPA), methylation of MAP3K2 Peptide
Assay type: biochemical
Reported Conditions: SMYD3 full length enzyme 10 nM, 3H-SAM 125 nM, MAP3K2 Peptide 1 μM, 120 min at 22° C.
pIC50: −log10 of the molar value.
pIC50: recorded values
Parameter: pIC50

Compound: C[C@H]1CC(=O)Nc2cc(C(=O)NCCC3CC3)ccc2N1C(=O)N1CCC(NCC(F)(F)F)CC1 [Example 29]
Comparator: =
Quantitative Readout: 6.17
--
Compound: Cc1nocc1C(=O)N1c2ccc(C(=O)NCCC3CCC3)cc2NC(=O)CC1C (racemic) [Example 6]
Comparator: =
Quantitative Readout: 4.89
--
Compound: Cc1nocc1C(=O)N1c2ccc(C(=O)NCCC3CCC3)cc2NC(=O)C(C)C1C (single isomer, unassigned) [Example 14]
Comparator: <
Quantitative Readout: 4.70
--
Compound: C[C@H]1CC(=O)Nc2cc(C(=O)NCCC3CC3)ccc2N1C(=O)N1CC[C@@H](N)C1.Cl [Example 39]
Comparator: =
Quantitative Readout: 6.23

* * *

Experimental System: SMYD3 (Homo sapiens, UniProt Q9H7B4)
Sequence (Q9H7B4 1-428): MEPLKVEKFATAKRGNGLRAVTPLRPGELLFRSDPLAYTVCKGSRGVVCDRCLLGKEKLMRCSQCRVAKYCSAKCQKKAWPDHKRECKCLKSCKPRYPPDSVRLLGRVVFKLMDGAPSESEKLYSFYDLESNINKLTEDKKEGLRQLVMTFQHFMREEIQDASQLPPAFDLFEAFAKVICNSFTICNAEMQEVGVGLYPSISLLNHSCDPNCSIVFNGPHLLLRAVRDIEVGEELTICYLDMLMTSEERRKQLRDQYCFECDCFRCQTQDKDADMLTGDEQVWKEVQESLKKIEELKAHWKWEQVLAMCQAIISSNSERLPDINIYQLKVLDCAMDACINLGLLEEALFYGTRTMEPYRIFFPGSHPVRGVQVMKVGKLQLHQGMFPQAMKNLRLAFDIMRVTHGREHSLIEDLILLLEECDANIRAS
Parameter: log10 IC50 (log10 of the value in nM)

Compound: C[C@H]1CC(=O)Nc2cc(C(=O)NCCC3CC3)ccc2N1C(=O)N1CCC(F)(F)C1 [Example 24]
log10 IC50: 2.85
--
Compound: C[C@H]1CC(=O)Nc2cc(C(=O)NCCC3CC3)ccc2N1C(=O)N(C)C1CCNCC1 [Example 45]
log10 IC50: 2.59
--
Compound: CC1C(=O)Nc2cc(C(=O)NCCC3CCC3)ccc2N(C(=O)N2CCC(N)CC2)C1C (single isomer, unassigned) [Example 22]
log10 IC50: 1.35
--
Compound: CCCCNC(=O)c1ccc2c(c1)NC(=O)CC(C)N2C(=O)CCC1CCCC1 (racemic) [Example 51]
log10 IC50: 4.39
--
Compound: C[C@H]1CC(=O)Nc2cc(C(=O)NCCC3CC3)ccc2N1C(=O)N1CC[C@H](N)C1.Cl [Example 37]
log10 IC50: 2.33
--
Compound: C[C@H]1CC(=O)Nc2cc(C(=O)NCCC3CC3)ccc2N1C(=O)N1CCCNCC1 [Example 33]
log10 IC50: 1.66

* * *

Experimental System: untagged full length SMYD3 (Homo sapiens, UniProt Q9H7B4)
Construct: As protein untagged full length SMYD3 was used
Sequence (Q9H7B4 1-428): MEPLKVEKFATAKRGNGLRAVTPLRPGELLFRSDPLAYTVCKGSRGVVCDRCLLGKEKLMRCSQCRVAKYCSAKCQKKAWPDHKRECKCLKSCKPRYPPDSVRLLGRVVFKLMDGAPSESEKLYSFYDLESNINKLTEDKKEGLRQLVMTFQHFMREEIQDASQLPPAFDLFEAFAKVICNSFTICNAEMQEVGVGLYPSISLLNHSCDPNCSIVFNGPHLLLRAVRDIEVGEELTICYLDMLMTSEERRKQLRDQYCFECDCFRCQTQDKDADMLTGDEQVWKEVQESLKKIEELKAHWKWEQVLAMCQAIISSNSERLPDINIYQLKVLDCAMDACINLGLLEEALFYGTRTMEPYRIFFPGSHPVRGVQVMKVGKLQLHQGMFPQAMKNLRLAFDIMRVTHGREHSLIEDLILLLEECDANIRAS
Assay Details: Thermal Shift Assay
Type: binding
Reported Conditions: protein 1.5-2.0 μM, 5× SYPRO Orange, scans 25° C. to 80° C.; control 4% DMSO
Thermal shift assay (° C.) below 7 °C gives NOT MET; Thermal shift assay (° C.) at or above it gives MET.

Compound: CCCNC(=O)c1ccc2c(c1)NC(=O)CC(C)N2C(=O)c1cccs1 (racemic)
Assigned Category: NOT MET
//
Compound: Cc1nocc1C(=O)N1c2ccc(C(=O)NCCC3CCC3)cc2NC(=O)CC1C (racemic)
Assigned Category: NOT MET
//
Compound: C[C@H]1CC(=O)Nc2cc(C(=O)NCCC3CC3)ccc2N1C(=O)N1CC[C@@H](N)C1.Cl
Assigned Category: MET
//
Compound: Cc1nocc1C(=O)N1c2ccc(C(=O)NCCC3CC3)cc2NC(=O)C(C)C1C (single isomer, unassigned) [Example 9]
Assigned Category: NOT MET
//
Compound: CC1C(=O)Nc2cc(C(=O)NCCC3CCC3)ccc2N(C(=O)N2CCC(N)CC2)C1C (single isomer, unassigned) [Example 21]
Assigned Category: MET
//
Compound: CCCCNC(=O)c1ccc2c(c1)NC(=O)CC(C)N2C(=O)c1cccc(F)c1 (racemic)
Assigned Category: NOT MET
//
Compound: CC1CC(=O)Nc2cc(C(=O)NCCC3CC3)ccc2N1C(=O)c1ccccc1 (racemic)
Assigned Category: NOT MET
//
Compound: CC1C(=O)Nc2cc(C(=O)NCCC3CC3)ccc2N(C(=O)N2CCC(N)CC2)C1C (mixture of isomers)
Assigned Category: MET
//
Compound: C[C@H]1CC(=O)Nc2cc(C(=O)NCCC3CC3)ccc2N1C(=O)N1CCCNCC1
Assigned Category: MET
//
Compound: CC1C(=O)Nc2cc(C(=O)NCCC3CCC3)ccc2N(C(=O)c2ccccc2)C1C (mixture of isomers)
Assigned Category: NOT MET
//
Compound: C[C@H]1CC(=O)Nc2cc(C(=O)NCCC3CC3)ccc2N1C(=O)N1CCC(F)(F)CC1
Assigned Category: NOT MET
